System: WaGa
test method notes: qHTS assay to identify novel small-molecules to repurpose for Merkel cell carcinoma treatment (AID 1296009); note: nearly all actives have a fitted effect of over 60% in size
experimental parameters: MCC and control cell lines, CellTiter-Glo viability, 72 h; series mostly up to 46 µM
Inconclusive results are not listed. Activity calls are given as the source filed them. Calls come from the whole dose curve; as a rule, active = well fitted inhibition curve with a large enough effect; inconclusive = small, poorly fitted or top-dose-only effect; inactive = flat fitted curve, though single readings scatter.
Hi there, use one of these labels in your reply, thanks! True (active), False (inactive)

Below are worked cases with known answers.
1. O=C1c2ccccc2-[n+]2ccc3c([nH]c4ccccc43)c21 | True
2. O=c1cc(-c2ccccc2)oc2cc(O)cc(O)c12 | False
3. O=C(O)CCc1nc(-c2ccccc2)c(-c2ccccc2)o1 | False
4. Clc1ccc(Cn2c(CN3CCCC3)nc3ccccc32)cc1 | False
5. c1cc(-c2sc(-c3ccncc3)c(-c3ccncc3)c2-c2ccncc2)ccn1 | False

Shift focus to the following entry.
-- ask Called result for NC1CCC(Nc2nc(Nc3ccc(C(=O)N4CCCCC4)cc3)c3ncn(-c4cccc(F)c4)c3n2)CC1 (stereo unspecified)
-- reply False

---

System: CP237
test method notes: qHTS profiling for inhibitors of Plasmodium falciparum proliferation (AID 504749);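 note: 0% = DMSO vehicle and full inhibition = artemisinin control; nearly all actives have a fitted effect of over 60% in size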
experimental parameters: P. falciparum in erythrocytes, SYBR Green DNA, 72 h; series mostly up to 28.7 µM
Records with an inconclusive call do not appear. Activity calls are given as the source filed them. Calls come from the whole dose curve; as a rule, active = well fitted inhibition curve with a large enough effect; inconclusive = small, poorly fitted or top-dose-only effect; inactive = flat fitted curve, though single readings scatter.
Hi there, use one of these labels in your reply, thanks! True (active), False (inactive)

1. CCOC(=O)O[C@]1(C(=O)OCCl)CC[C@@H]2[C@H]3CCC4=CC(=O)C=C[C@]4(C)[C@@H]3[C@@H](O)C[C@@]21C | False

-- ask Called result for CN(C)CCC(c1ccccc1)c1ccccn1 (configuration not stated)
-- reply False

-- ask Moving on to CCCNC(=O)NS(=O)(=O)c1ccc(Cl)cc1
-- reply False

-- ask Moving on to O=C(NCCN1CCOCC1)c1ccc(Cl)cc1
-- reply False

-- ask Moving on to O=c1[nH]cnc2c1ncn2[C@H]1CC[C@@H](CO)O1
-- reply False

---

test method notes: High-throughput drug toxicity screening in the BPDCN cell line Gen2.2 (AID 1224824);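 note: cells exposed to compounds for 48 h before reading; 100% = DMSO and 0% = bortezomib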
experimental parameters: Gen2.2 BPDCN cells; at 45.8 µM (top of the series) unless noted
value kind: cell viability, % of control (lower = more cytotoxic) (%)
Answers are plain numbers, in %.

Past entries and their recorded results:
1) CO[C@H]1C=CO[C@@]2(C)Oc3c(C)c(O)c4c(O)c(c5c(c4c3C2=O)NC2(CCN(CC(C)C)CC2)N=5)=NC(=O)C(C)=CC=C[C@H](C)[C@H](O)[C@@H](C)[C@@H](O)[C@@H](C)[C@H](OC(C)=O)[C@H]1C | 106
2) O=c1c(-c2ccc(O)cc2)coc2cc(OC3O[C@H](CO)[C@H](O)[C@H](O)[C@H]3O)cc(O)c12 (some centres undefined) | 74.8
3) COc1cccc2c1CCCC2CCCN1CCN(C2CCCCC2)CC1 (centres undefined) | 165

-- ask # lookup: cell viability, % of control (lower = more cytotoxic) of Cc1c[nH]c(C=C2C(=O)Nc3ccccc32)c1CCC(=O)O
-- reply 45

---

test method notes: Quantitative High-Throughput drug screen in 47 multiple myeloma cell lines against the NCATS MIPE library collection: KMM1_JCRB cell viability assay (AID 1918960); note: nearly all actives have a fitted effect of over 30% in size
experimental parameters: KMM1 myeloma viability, CellTiter-Glo ATP luminescence, 48 h; series mostly up to 45.8 µM
From the text: PI: Beverly A. Mock Ph.D. Laboratory of Cancer Biology and Genetics, Center for Cancer Research, National Cancer Institute, National Institute of Health, Bethesda, Maryland […] 5; Detector; 425V; Luminescence; Viewlux PerkinElmer. […] 1. […] Briefly, the corresponding myeloma cell lines were screened in 1,536-well plates with 500 cells, 5-uL per well for inhibition of cell viability (assessed by measuring ATP levels with CellTiterGlo). […]
Inconclusive results are not listed. Active and inactive are the calls of the source. Calls come from the whole dose curve; as a rule, active = well fitted cell-killing curve with a large enough effect; inconclusive = small, poorly fitted or top-dose-only effect, or effect the other way; inactive = no such curve, though single readings can be large or run the other way.
Hi there, use one of these labels in your reply, thanks! TRUE (active), FALSE (inactive)

1. C[C@H]1[C@H](NC(=O)C(=NOC(C)(C)C(=O)O)c2csc(N)n2)C(=O)N1S(=O)(=O)O | FALSE
2. Cc1c(O)cccc1C(=O)N[C@@H](CSc1ccccc1)[C@H](O)CN1C[C@H]2CCCC[C@@H]2C[C@@H]1C(=O)NC(C)(C)C | TRUE

-- ask Called result for COc1ccc(C2CC(c3ccccc3)=NN2c2ccc(S(N)(=O)=O)cc2)cc1 (stereo not drawn)
-- reply TRUE

-- ask Moving on to COc1ccc(-n2c(C)c([N+](=O)[O-])c3ccc(O)cc32)cc1
-- reply FALSE

-- ask Moving on to NC(=O)c1ccc2nc(-c3ccc(Oc4ccc(Cl)cc4)cc3)[nH]c2c1
-- reply TRUE

---

test method notes: qHTS of pediatric cancer cell lines to identify multiple opportunities for drug repurposing: Primary screen for A673 cells (AID 1347092); note: nearly all actives have a fitted effect of over 45% in size
experimental parameters: A673 Ewing sarcoma viability, CellTiter-Glo ATP luminescence, 48 h; series mostly up to 46 µM
Results filed as inconclusive are left out. The source made the active and inactive calls. Calls follow the shape of the dose curve; as a rule, active = well fitted cell-killing curve with a large enough effect; inconclusive = small, poorly fitted or top-dose-only effect; inactive = no such curve, though single readings can be large or run the other way.
Hi there, use one of these labels in your reply, thanks! T for active, F for inactive

Below are worked cases with known answers.
1. C[C@H](NC(=O)C(=O)Nc1ccccc1C(C)(C)C)C(=O)N[C@@H](CC(=O)O)C(=O)COc1c(F)c(F)cc(F)c1F | T
2. CC#CCn1c(N2CCC[C@@H](N)C2)nc2c1c(=O)n(Cc1nc(C)c3ccccc3n1)c(=O)n2C | T
3. c1ccc2c(Cc3c[nH]c4ccccc34)c[nH]c2c1 | T
4. CC(C)C[C@H](CC(=O)O)C(=O)N[C@@H](Cc1c[nH]c2ccccc12)C(=O)N[C@@H](C)c1ccccc1 | T
5. O=C(CCN1CCN(C(=O)OCc2cc(Cl)cc(Cl)c2)CC1)c1ccc2[nH]c(=O)oc2c1 | F

-- ask Called result for NC1=N[C@@]2(c3cc(NC(=O)c4ccc(F)cn4)ccc3F)COC[C@@H]2CS1
-- reply T

-- ask Moving on to CCN(CC)CCOC(=O)c1ccc(N)cc1
-- reply F

-- ask Moving on to C[N+]1(C)[C@@H]2CC(OC(=O)[C@H](CO)c3ccccc3)C[C@H]1[C@H]1O[C@@H]12 (some centres undefined)
-- reply F

-- ask Moving on to COc1cc(NC(=O)c2ccc(-c3ccc(Cl)cc3)o2)cc(OC)c1
-- reply T

---

test method notes: qHTS Screen of the MIPE 4.0 Collection Against Ewings Sarcoma (TC32) (AID 1259256); note: nearly all actives have a fitted effect of over 45% in size
experimental parameters: TC32 Ewing sarcoma viability, CellTiter-Glo, 48 h; series mostly up to 45.8 µM
Records with an inconclusive call do not appear. The source made the active and inactive calls. Calls follow the shape of the dose curve; as a rule, active = well fitted inhibition curve with a large enough effect; inconclusive = small, poorly fitted or top-dose-only effect; inactive = no such curve, though single readings can be large or run the other way.
Hi there, use one of these labels in your reply, thanks! Y = active, N = inactive

Below are worked cases with known answers.
1) C=C1C(=O)OC2C=C(C)CCC=C(C)CCC12 (stereo not given) | Y
2) NC1=N[C@@]2(c3cc(NC(=O)c4ccc(F)cn4)ccc3F)COC[C@@H]2CS1 | N

-- ask Called result for O=C(O)CCC1CCC(c2cc(F)ccc2F)(S(=O)(=O)c2ccc(Cl)cc2)CC1 (stereo not given)
-- reply Y

-- ask Moving on to CCOC1OC(=O)C[C@H]1NC(=O)[C@@H]1CCCN1C(=O)[C@@H](NC(=O)c1ccc(N)c(Cl)c1)C(C)(C)C (stereo not given in full)
-- reply N

-- ask Moving on to C[C@]12CC[C@@H]3c4ccc(O)cc4CC[C@H]3[C@H]1C[C@@H](O)[C@H]2O
-- reply Y

---

System: HEK293
test method notes: Cytotoxic Profiling of Annotated Libraries Using Quantitative High-Throughput Screening (AID 1296008); note: nearly all actives have a fitted effect of over 60% in size
experimental parameters: Five cell lines viability, CellTiter-Glo ATP luminescence, 48-72 h
Inconclusive results are not listed. Active and inactive are the calls of the source. The call rests on the fitted dose curve; in most records, active means well fitted inhibition curve with a large enough effect; inconclusive means small, poorly fitted or top-dose-only effect; inactive means flat fitted curve, though single readings scatter.
Hi there, use one of these labels in your reply, thanks! class 1 = active, class 0 = inactive

Below are worked cases with known answers.
1) COc1cccc2c1CCCC2CCCN1CCN(C2CCCCC2)CC1 (stereo unspecified) | class 1
2) CC(=O)c1ccc(S(=O)(=O)NC(=O)NC2CCCCC2)cc1 | class 0
3) O=c1c(O)c(-c2ccc(O)cc2)oc2cc(O)cc(O)c12 | class 0
4) O=C(NCc1ccccc1)c1csc(Nc2ccncn2)n1 | class 1
5) CC=C(C)C(=O)O[C@H]1C(C)=C[C@]23C(=O)[C@@H](C=C(CO)[C@@H](O)[C@]12O)[C@H]1[C@@H](C[C@H]3C)C1(C)C | class 1
6) Oc1ccc(C2CCN(c3ccnc4ccccc34)CC2)cc1O | class 1
7) Cc1ccc(C(=O)Nc2cccc(C(F)(F)F)c2)cc1Nc1nc(-c2cccnc2)nc2c1cnn2C | class 1
8) Cc1[nH]c(C=C2C(=O)Nc3ccc(S(=O)(=O)Cc4c(Cl)cccc4Cl)cc32)c(C)c1C(=O)N1CCC[C@H]1CN1CCCC1 | class 1
9) COc1cc2ncnc(-n3nc(-c4ccccn4)nc3N)c2cc1OC | class 0
10) CC=CC(=O)N(CC)c1ccccc1C | class 0

Shift focus to the following entry.
-- ask Called result for CCN(CC)CCOc1ccc(C(=C(Cl)c2ccccc2)c2ccccc2)cc1
-- reply class 0
